The measured values listed here are drawn from PubChem BioAssay.

What GFP response vs DMSO was measured for each of the following?
Measurement Description: RPL19A-GFP modulators, yeast TOR pathway, confirmation, cell-based, S. cerevisiae, flow cytometry, cherry picks, mother/daughter gates (AID 2270)
Condition Set: S. cerevisiae RPL19A-GFP strain, 3 h, at 10 µM, stronger effect = lower value, 100 = same GFP as DMSO wells
Answers are plain numbers, in %.

Worked cases, GFP response vs DMSO given:
INSERT INTO measurements (compound, assay_value) VALUES
  ('Cc1cccc(C)c1NC(=O)c1nc(S(=O)(=O)Cc2ccccc2)ncc1Cl', 97.1),
  ('Cc1ccc(CCN2CC(C(=O)NCCCN(C)Cc3ccccc3)CC2=O)cc1 (stereo not drawn)', 99.1),
  ('COc1ccc(-n2c(N)c(C(=O)Nc3c(C)n(C)n(-c4ccccc4)c3=O)c3nc4ccccc4nc32)cc1', 97.4);

Here are 7 compounds. What values of GFP response vs DMSO were reported for them?
1. CCCN(CCC)S(=O)(=O)c1ccc(C(=O)Nc2nnc(-c3cc(OC)cc(OC)c3)o2)cc1
2. Cc1cccc(/C=C/c2onc(C)c2[N+](=O)[O-])n1
3. Cc1ccccc1NC(=O)CC1SC(=O)N(c2ccccc2)C1=O (stereo not drawn)
4. O=[N+]([O-])c1ccc(N=Nc2c(Cl)cc(O)cc2Cl)cc1
5. Cc1ccc(SC(=O)c2c(C)noc2-c2cc(C)on2)cc1
6. OCC[n+]1ccc(/C=C/c2c[nH]c3ccccc23)cc1
7. CS(=O)(=O)N1N=C(c2ccco2)CC1c1ccccc1 (stereo not drawn)

// result
[98.2, 99.9, 94.9, 91.9, 103, 108, 100]

Would you be so kind as to report GFP response vs DMSO for each listed record?
1. CC(=O)Nc1cccc(Oc2ccc(-c3noc(C)n3)cc2)c1
2. O=C(N/N=C/c1ccc(Cl)cc1Cl)c1cccc(F)c1
3. NNC(=O)c1ccc(COc2ccc3ccccc3c2)cc1
4. Cc1ccc(N2C(=O)C3C4C=CC(CNC(=S)N5CCN(c6ccccc6)CC5)(O4)C3C2=O)cc1 (stereo not drawn)
5. COc1ccccc1C1CC(c2c(-c3ccccc3)c3cc(Cl)ccc3[nH]c2=O)=NN1S(C)(=O)=O (stereo not drawn)
6. O=C(COC(=O)c1n[nH]c2ccccc12)c1cccc(Br)c1
7. O=C(/C=C/c1ccnc2ccccc12)c1cccs1

// result
1: 95.8; 2: 97; 3: 98; 4: 102; 5: 97.6; 6: 96.5; 7: 101

Hey, quick one: what's GFP response vs DMSO for each of these?
1. COc1ccc(N2C(=O)C(Cl)=C(N(CCO)Cc3ccccc3)C2=O)cc1
2. NC(=O)c1ccc(Oc2ccc(-c3nnco3)cc2)c([N+](=O)[O-])c1
3. O=C(/C=C/c1ccccc1)C1=C(O)C(=O)N(CCO)C1c1cccc([N+](=O)[O-])c1 (stereo not drawn)
4. Nc1ccccc1NC(=O)c1ccccc1
5. CCOC(=O)c1ccc(NC(=O)c2nc(S(=O)(=O)Cc3ccccc3)ncc2Cl)cc1
6. O=C(/C=C/c1ccc(F)cc1)NC(=S)NNC(=O)c1cnccn1
7. CCCCNC(=O)c1ccc2c(SCC(=O)O)c3c(nc2c1)CCCC3

// result
1. 101
2. 98.4
3. 99.8
4. 101
5. 99.5
6. 108
7. 98.7

Give me GFP response vs DMSO for each of these compounds, listed below.
1. CN(C)CCCNc1cc(C(C)(C)C)nc2c(-c3ccc(Cl)cc3)cnn12
2. O=C1C(Cl)=C(N2CCN(Cc3ccccc3)CC2)C(=O)N1Cc1ccccc1
3. CC(=O)Oc1oc(-c2ccccc2)nc1C=Nc1ccc(N(C)C)cc1
4. CCCc1[nH]nc2c1C(c1ccc(O)c(OC)c1)C(C#N)=C(N)O2 (stereo not drawn)
5. CC(=O)Nc1ccc(NC(=O)c2nc(S(=O)(=O)Cc3cccc(C)c3)ncc2Cl)cc1
6. Cc1c(Br)c(O)c(Br)c2sc(=O)oc12
7. CCOC(=O)CNc1c(-c2ccc(OC)cc2)nc2ccc(Cl)cn12

// result
[93.6, 97, 100, 103, 102, 96.2, 100]
